# Test system: PA-1
# assay.overview: Primary qHTS to identify gynecologic anti-cancer compounds using libraries of approved drugs and bioactive compounds (AID 1345084); note: nearly all actives have a fitted effect of over 55% in size
# measurement.conditions: Gynecologic cancer cell panel viability, ATPlite luminescence, 48 h; series mostly up to 57.5 µM
Results filed as inconclusive are left out. Calls of active or inactive are those of the source. Calls come from the whole dose curve; as a rule, active = well fitted cell-killing curve with a large enough effect; inconclusive = small, poorly fitted or top-dose-only effect, or effect the other way; inactive = flat fitted curve, though single readings scatter.
recorded.metric: outcome

// solved cases for outcome follow
CC(C)(O)/C=C/CC(C)(O)C1C(O)CC2(C)C3CCC4C(C)(C)C(=O)CCC4(C)C3CCC12C (stereo not drawn)	inactive
O=C(/C=C/c1ccc(O)cc1)N[C@@H](Cc1ccc(O)cc1)C(=O)O	inactive
Cc1[nH]c2ccccc2c1CCNC(=O)c1ccccc1F	inactive
CC1CCC2(C=O)C(CO)=CCCC2C1(C)CC(=O)O (stereo not drawn)	inactive
COc1ccc(/C=C/C(=O)O[C@@H]2[C@@H](O)[C@H](C)O[C@@H](O[C@H]3[C@@H]4C=CO[C@@H](O[C@H]5O[C@@H](CO)[C@H](O)[C@@H](O)[C@@H]5O)[C@@H]4[C@@]4(CO)O[C@@H]34)[C@@H]2OC(C)=O)cc1	inactive
CCOC(=O)c1sc(NC(=O)[C@H](C(C)C)n2c(=O)[nH]c3ccccc3c2=O)nc1C	inactive
COC(=O)c1ccc(OC(CO)C(O)c2ccc(O)c(OC)c2)c(OC)c1 (stereo not drawn)	inactive

Prompt: Dear colleague, I am looking for the recorded outcome of the following compound: COC(=O)Cc1cc2c(c([N+](=O)[O-])c1)N(C(=O)CC[C@H](N)C(=O)O)CC2
Response: inactive

Values were extracted from PubChem BioAssay (NCATS).
